Values compiled from ChEMBL document CHEMBL3433997.

target: Hexose transporter 1 (Plasmodium falciparum); assay: ST_JUDE_LEISH: Cytotoxicity at 2uM final concentration against transgenic Leishmania Mexicana promastigotes LmPfHT that are glucose transport deficient and complemented with the Plasmodium falciparum hexose transporter. Activity is measured by DNA content using SYBR green in vitro; type: functional
Listing of entries alongside the reported inhibition.

{"columns": ["COMPOUND", "UNIT_SPEC", "inhibition"],
 "data": [
  ["COc1ccc(CCNCCCCCNCCc2ccc(Cl)cc2)cc1OC", "%", 6.09],
  ["Cc1ccc(Cl)cc1N1CCN(CCCNC(=O)C2CCN(c3nc4ccccc4[nH]3)CC2)CC1", "%", 5.2],
  ["CCc1ccc(C2CCN(CCCCNC(=O)c3ccc(NC(=O)c4ccc(Cl)cc4)cc3)CC2)c(OC)c1", "%", 2.21],
  ["CC(C)COc1ccc(Cl)cc1Cc1ccc(-c2nc3cc(CCN4CCCC4)ccc3[nH]2)o1", "%", 3.33],
  ["NCc1ccc(CNCc2cccc(-c3cccc(-c4nc5ccccc5[nH]4)c3)c2)cc1", "%", -3.61],
  ["CCCc1cc(NC2CCN(C)CC2)nc(Nc2ccc(C)cc2)n1", "%", 3.28],
  ["CCNC(=O)Nc1ccc(N(C)c2ccnc(NC3CC3)n2)cc1", "%", 3.87],
  ["CCCn1c(O)nnc1SCC(=O)Nc1cc(Cl)ccc1Cl", "%", -0.49],
  ["N#Cc1ccc2c(c1)CCN(CCC1CCC(NC(=O)/C=C/c3ccc(Cl)c(Cl)c3)CC1)CC2 (stereo not given)", "%", 13.1],
  ["O=C(Nc1ccc2ccccc2c1)N(CCCn1ccnc1)Cc1csc(-c2ccc(CNCc3ccccc3)cc2)n1", "%", 0.41]
]}
